# experimental.target: P2Y purinoceptor 2 (Homo sapiens, UniProt P41231)
# Sequence (P41231 whole entry, the tested form may be a part): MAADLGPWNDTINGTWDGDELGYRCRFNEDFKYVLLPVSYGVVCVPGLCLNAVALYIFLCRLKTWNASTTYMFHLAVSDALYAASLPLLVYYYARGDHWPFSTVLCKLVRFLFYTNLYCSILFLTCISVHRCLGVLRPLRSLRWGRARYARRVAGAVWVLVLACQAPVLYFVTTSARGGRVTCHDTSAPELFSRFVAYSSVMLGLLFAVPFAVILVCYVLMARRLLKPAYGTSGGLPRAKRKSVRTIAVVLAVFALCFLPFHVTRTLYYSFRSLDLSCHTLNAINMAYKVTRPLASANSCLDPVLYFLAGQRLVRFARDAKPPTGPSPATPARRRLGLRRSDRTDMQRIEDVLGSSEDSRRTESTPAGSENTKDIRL
assay.metric: Ki
A bare number is not enough; add the unit after it.

(Q) Look up Ki for this molecule: CCOCCNc1nc2c(s1)C=Cc1cc(Cl)ccc1[C@@H]2c1cn(C)c(=O)[nH]c1=S (racemic)
(A) 9.12 µM

----------
# experimental.target: P2Y purinoceptor 2 (Homo sapiens, UniProt P41231)
# assay.details: Displacement of 2-((5-(7-chloro-2-((3-((2-(5-(3-(5,5-difluoro-7,9-dimethyl-5H-4lambda4,5lambda4-dipyrrolo[1,2-c:2',1'-f][1,3,2]diazaborinin-3-yl)propanamido)pentanamido)ethyl)amino)-3-oxopropyl)amino)-4H-benzo[5,6]cyclohepta[1,2-d]thiazol-4-yl)-2-oxo-4-thioxo-3,4-dihydropyrimidin-1(2H)-yl)methyl)-N-(1H-tetrazol-5-yl)thiazole-4-carboxamide from NLuc fused P2Y2R (unknown origin) extracted from 1321N1 cell membrane incubated for 1 hr by NanoBRET assay
assay.metric: pKi
# pKi: negative log10 of molar concentration; output just the value

(Q) Look up pKi for this molecule: O=C(COc1ccc(/C=C/C2=[N+]3C(=Cc4ccc(-c5cccs5)n4[B-]3(F)F)C=C2)cc1)NCCCCCC(=O)N[C@@H](CCCNc1ncc(C(c2ccc(Cl)cc2)c2ccc(Cl)cc2)s1)C(=O)O
(A) 5.48
